// reported pIC50 for each item listed
experimental.system: soluble epoxide hydrolase (sEH) (Homo sapiens)
Sequence (P34913 whole entry): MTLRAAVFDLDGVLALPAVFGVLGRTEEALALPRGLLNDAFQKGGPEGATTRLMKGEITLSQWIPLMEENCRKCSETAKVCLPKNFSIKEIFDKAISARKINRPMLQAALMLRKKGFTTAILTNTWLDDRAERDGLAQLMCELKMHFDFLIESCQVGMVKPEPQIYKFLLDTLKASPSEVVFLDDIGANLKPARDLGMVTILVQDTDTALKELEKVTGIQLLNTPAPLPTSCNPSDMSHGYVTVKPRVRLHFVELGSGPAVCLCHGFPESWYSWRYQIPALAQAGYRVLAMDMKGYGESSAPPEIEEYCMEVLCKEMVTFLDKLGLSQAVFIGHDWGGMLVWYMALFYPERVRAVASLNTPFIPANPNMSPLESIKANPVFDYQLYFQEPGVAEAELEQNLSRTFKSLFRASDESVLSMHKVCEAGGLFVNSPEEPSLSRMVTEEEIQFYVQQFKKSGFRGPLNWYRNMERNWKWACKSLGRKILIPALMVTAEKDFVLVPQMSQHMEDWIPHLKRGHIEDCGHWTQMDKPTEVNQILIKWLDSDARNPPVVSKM
method.notes: in vitro biochemical activity test, sEH enzyme inhibition with EET substrate (LC-MS)
conditions.used: 90 min pre-incubation at room temperature, 60 min reaction
Procedure: This example relates to the relationship between the structure and activity of (hetero)aryl imidazole compounds containing an aromatic substituent. Specifically, the biochemical activity of the (hetero)aryl imidazole compounds containing an aromatic substituent described in Example 1 as sEH enzyme inhibitors was evaluated by in vitro activity test experiments. The experimental procedures for evaluating in vitro biochemical activity were described below. […]
// returns pIC50 (minus log10 of molar concentration), number only

The following compounds have reported results that may help.
| compound | experimental.system | pIC50 |
| --- | --- | --- |
| Cc1ncc(-c2cc3nc(-c4ccc(S(=O)(=O)N(C)C)cc4)[nH]c3cc2Cl)c(Cl)n1 [Compound 30] | soluble epoxide hydrolase (sEH) (Homo sapiens) | 10.00 |
| CC(=O)n1nc(C)c(-c2cc3nc(-c4ccc(C(F)(F)F)cc4)[nH]c3cc2F)c1C [Compound 23] | soluble epoxide hydrolase (sEH) (Homo sapiens) | 9.54 |

Turning now to a further compound:
May I ask what pIC50 has been recorded for CC(C)n1nccc1-c1cc2nc(-c3ccc(S(C)(=O)=O)cc3)[nH]c2cc1F [Compound 19] ?
9.01
